# target mRNA inhibition listing for each entry below
Target: IRF5
Conditions: ASO, KARPAS-229, 4 µM
After the bases stand the sugars from the 5' end (letter, count) and the backbone: PS all phosphorothioate, else s phosphorothioate and o phosphodiester by linkage. Methylation of C is not given here. e = 2'-O-(2-methoxyethyl) (MOE); k = constrained ethyl (cEt); d = 2'-deoxy (DNA)
Numbers only here, please. The scale is %.

Before answering, review these 3 worked examples.
>>> readout_number("TCTTGACCTCCCGCTG (sugars kdddddddddkekeke, PS)")
40
>>> readout_number("TTATCTCCGTCCTGGC (sugars kkdddddddddkekek, PS)")
0
>>> readout_number("CATCAGCTTTCTTGTC (sugars k3 d10 k3, PS)")
28

Which value of target mRNA inhibition has been reported for GCTGTCACATCTCCAC (sugars kddddddddddkekek, PS) in the records?
17

Please give the measured target mRNA inhibition for this sequence: CCACTGTGTACCCCAT (sugars k3 d9 k3 e1, PS)
57

For TGAGTCATGGGCTGAG (sugars kkkddddddddkdkdk, PS) , what is its reported target mRNA inhibition?
3

Looking for the measured target mRNA inhibition of GGTCTTGACCTCCCGC (sugars kkkddddddddkekek, PS) , can you help?
29
